- Test: Serum concentrations of ICI 182780 by radioimmunoassay (pharmacokinetics of monthly i.m. depot)
- Assay type: in vivo, human
- Applied Conditions: human, serum, intramuscular, 250 mg, patient 15 (no change), 250 mg; read-out: Cmax at month 6
- Procedure: Bridsh Journal of Cancer (1996) 74, 300-308 ? […] The agent was administered as a monthly depot intramuscular injection. […] The study was approved by the ethics committees of each clinical centre. […] Tumour response to therapy was evaluated according to UICC criteria (Hayward et al., 1977). […] Body weight was recorded at each monthly review in the majority of patients. […] The study limit of quantification was 0.68 ng ml-'. […] Prolactin was measured by immunoradiometric assay using reagents supplied by Netria. […]
Measured Property: Cmax
Write the quantity with the unit trailing the number.

In plain terms, C[C@]12CC[C@@H]3c4ccc(O)cc4C[C@@H](CCCCCCCCC[S+]([O-])CCCC(F)(F)C(F)(F)F)[C@H]3[C@@H]1CC[C@@H]2O (stereo partly shown) has a documented Cmax of 15.8 ng/mL

* * *

- Test: Serum concentrations of ICI 182780 by radioimmunoassay (pharmacokinetics of monthly i.m. depot)
- Type: in vivo, human
- Applied Conditions: human, serum, intramuscular, 250 mg, patient 8 (partial response), 250 mg; read-out: Cmax at month 6
Measured Property: Cmax (ng/mL)
State just the number; it will be interpreted in ng/mL.

In plain terms, C[C@]12CC[C@@H]3c4ccc(O)cc4C[C@@H](CCCCCCCCC[S+]([O-])CCCC(F)(F)C(F)(F)F)[C@H]3[C@@H]1CC[C@@H]2O (stereo partly shown) has a documented Cmax of 10

* * *

- Test: Serum concentrations of ICI 182780 by radioimmunoassay (pharmacokinetics of monthly i.m. depot)
- Format: in vivo, human
- Applied Conditions: human, serum, intramuscular, 250 mg, patient 12 (no change), 250 mg; read-out: Cmax on entry
Measured Property: Cmax (ng/mL)
State just the number; it will be interpreted in ng/mL.

In plain terms, C[C@]12CC[C@@H]3c4ccc(O)cc4C[C@@H](CCCCCCCCC[S+]([O-])CCCC(F)(F)C(F)(F)F)[C@H]3[C@@H]1CC[C@@H]2O (stereo partly shown) [ICI 182780] has a documented Cmax of 7.2

* * *

- Test: Serum concentrations of ICI 182780 by radioimmunoassay (pharmacokinetics of monthly i.m. depot)
- Type: in vivo, human
- Applied Conditions: human, serum, intramuscular, 250 mg, patient 8 (partial response), 250 mg; read-out: Cmax on entry
Measured Property: Cmax (ng/mL)
State just the number; it will be interpreted in ng/mL.

In plain terms, C[C@]12CC[C@@H]3c4ccc(O)cc4C[C@@H](CCCCCCCCC[S+]([O-])CCCC(F)(F)C(F)(F)F)[C@H]3[C@@H]1CC[C@@H]2O (stereo partly shown) has a documented Cmax of 5.9
